Tested on: 327498-153-R-J2-PDC multicell spheroid viability
Assay: Anticancer human tumor 327498-153-R-J2-PDC patient-derived uterine carcinosarcoma cell line growth inhibition [IpAb]; active means viability on the fitted dose curve at most 10% of control; inactive means the rest
Conditions: second compound 0.01 µM; first compound 10 µM
Classes used: t = active, f = inactive

molecule: Cc1nc(NC(=O)N2CCCC2C(N)=O)sc1-c1ccnc(C(C)(C)C(F)(F)F)c1 (configuration not stated) + CCN1CCN(Cc2ccc(Nc3ncc(F)c(-c4cc(F)c5nc(C)n(C(C)C)c5c4)n3)nc2)CC1
classification: f

molecule: C=CC(=O)N1CCN(c2nc(=O)n(-c3c(C)ccnc3C(C)C)c3nc(-c4c(O)cccc4F)c(F)cc23)C(C)C1 (configuration not stated) + CCN1CCN(Cc2ccc(Nc3ncc(F)c(-c4cc(F)c5nc(C)n(C(C)C)c5c4)n3)nc2)CC1
classification: f

molecule: Cn1ncc(Cl)c1-c1cc(C(=O)NC(CN)Cc2cccc(F)c2)sc1Cl (configuration not stated) + CCN1CCN(Cc2ccc(Nc3ncc(F)c(-c4cc(F)c5nc(C)n(C(C)C)c5c4)n3)nc2)CC1
classification: t

molecule: C=CCn1c(=O)c2cnc(Nc3ccc(N4CCN(C)CC4)cc3)nc2n1-c1cccc(C(C)(C)O)n1 + CCN1CCN(Cc2ccc(Nc3ncc(F)c(-c4cc(F)c5nc(C)n(C(C)C)c5c4)n3)nc2)CC1
classification: t

molecule: CC1(C)CCC(CN2CCN(c3ccc(C(=O)NS(=O)(=O)c4ccc(NCC5CCOCC5)c([N+](=O)[O-])c4)c(Oc4cnc5[nH]ccc5c4)c3)CC2)=C(c2ccc(Cl)cc2)C1 + CCN1CCN(Cc2ccc(Nc3ncc(F)c(-c4cc(F)c5nc(C)n(C(C)C)c5c4)n3)nc2)CC1
classification: f

molecule: CCCS(=O)(=O)Nc1ccc(F)c(C(=O)c2c[nH]c3ncc(-c4ccc(Cl)cc4)cc23)c1F + CCN1CCN(Cc2ccc(Nc3ncc(F)c(-c4cc(F)c5nc(C)n(C(C)C)c5c4)n3)nc2)CC1
classification: f

molecule: Cn1nccc1Nc1nccc(-c2ccn(C(CO)c3ccc(Cl)c(F)c3)c(=O)c2)n1 (configuration not stated) + CCN1CCN(Cc2ccc(Nc3ncc(F)c(-c4cc(F)c5nc(C)n(C(C)C)c5c4)n3)nc2)CC1
classification: f

---

System: 327498-153-R-J2-PDC multicell spheroid viability
Experiment: Anticancer human tumor 327498-153-R-J2-PDC cell line growth inhibition [IpAb];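 further: spheroids exposed to agents for 7 days; 100% = DMSO vehicle control viability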
Details: second compound 0.316 µM; first compound 0.001 µM; active compounds read low

molecule: CC(C)n1nc(-c2ccc3oc(N)nc3c2)c2c(N)ncnc21 + CCN1CCN(Cc2ccc(Nc3ncc(F)c(-c4cc(F)c5nc(C)n(C(C)C)c5c4)n3)nc2)CC1
viability, T/C / %: 50.1
--
molecule: CC(C)n1nc(-c2ccc3oc(N)nc3c2)c2c(N)ncnc21 + CC(C)NCC(C(=O)N1CCN(c2ncnc3c2C(C)CC3O)CC1)c1ccc(Cl)cc1
viability, T/C / %: 56.5
--
molecule: Cn1ncnc1[C@H]1c2n[nH]c(=O)c3cc(F)cc(c23)N[C@@H]1c1ccc(F)cc1 + CCN1CCN(Cc2ccc(Nc3ncc(F)c(-c4cc(F)c5nc(C)n(C(C)C)c5c4)n3)nc2)CC1
viability, T/C / %: 54
--
molecule: Cn1ncnc1[C@H]1c2n[nH]c(=O)c3cc(F)cc(c23)N[C@@H]1c1ccc(F)cc1 + CC(C)NCC(C(=O)N1CCN(c2ncnc3c2C(C)CC3O)CC1)c1ccc(Cl)cc1
viability, T/C / %: 71.6

---

Tested on: 327498-153-R-J2-PDC multicell spheroid viability
Test: Anticancer human tumor 327498-153-R-J2-PDC cell line growth inhibition [IpAb];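 further: spheroids exposed to agents for 7 days; 100% = DMSO vehicle control viability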
Settings: second compound 0.1 µM; first compound 0.01 µM; active compounds read low
Description: Combinatorial screen of targeted agents with ipatasertib and abemaciclib in multi-cell type tumor spheroids […] Compounds. […] If the clinical Cmax for an agent had not been determined, the highest concentration tested was 10 microM. NCI60 Cell Culture. […] The optimal seeding densities for each of the cell lines at each time point assessed were determined prior to performing the concentration response studies. […]
The following molecules are shown together with reported viability, T/C values.

molecule: CC(C)n1nc(-c2ccc3oc(N)nc3c2)c2c(N)ncnc21 + CCN1CCN(Cc2ccc(Nc3ncc(F)c(-c4cc(F)c5nc(C)n(C(C)C)c5c4)n3)nc2)CC1
study.system: 327498-153-R-J2-PDC multicell spheroid viability
viability, T/C / %: 31.4
//
molecule: COc1c(OCCCN2CCOCC2)ccc2c3n(c(=NC(=O)c4cnc(N)nc4)nc12)CCN3 + CCN1CCN(Cc2ccc(Nc3ncc(F)c(-c4cc(F)c5nc(C)n(C(C)C)c5c4)n3)nc2)CC1
study.system: 327498-153-R-J2-PDC multicell spheroid viability
viability, T/C / %: 55.5
//
molecule: Cn1ncnc1[C@H]1c2n[nH]c(=O)c3cc(F)cc(c23)N[C@@H]1c1ccc(F)cc1 + CC(C)NCC(C(=O)N1CCN(c2ncnc3c2C(C)CC3O)CC1)c1ccc(Cl)cc1
study.system: 327498-153-R-J2-PDC multicell spheroid viability
viability, T/C / %: 69.7
//
molecule: CC(C)n1nc(-c2ccc3oc(N)nc3c2)c2c(N)ncnc21 + CC(C)NCC(C(=O)N1CCN(c2ncnc3c2C(C)CC3O)CC1)c1ccc(Cl)cc1
study.system: 327498-153-R-J2-PDC multicell spheroid viability
viability, T/C / %: 36.6
//
molecule: Cn1ncnc1[C@H]1c2n[nH]c(=O)c3cc(F)cc(c23)N[C@@H]1c1ccc(F)cc1 + CCN1CCN(Cc2ccc(Nc3ncc(F)c(-c4cc(F)c5nc(C)n(C(C)C)c5c4)n3)nc2)CC1
study.system: 327498-153-R-J2-PDC multicell spheroid viability
viability, T/C / %: 47.2
//
molecule: COc1c(OCCCN2CCOCC2)ccc2c3n(c(=NC(=O)c4cnc(N)nc4)nc12)CCN3 + CC(C)NCC(C(=O)N1CCN(c2ncnc3c2C(C)CC3O)CC1)c1ccc(Cl)cc1
study.system: 327498-153-R-J2-PDC multicell spheroid viability
viability, T/C / %: 74.9

---

System: 327498-153-R-J2-PDC multicell spheroid viability
Experiment: Anticancer human tumor 327498-153-R-J2-PDC cell line growth inhibition [IpAb]; active = viability on the fitted dose curve at most 10% of control; inactive = the rest;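 further: spheroids exposed to agents for 7 days; 100% = DMSO vehicle control viability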
Settings: second compound 0.1 µM; first compound 10 µM
Classes used: 1 (yes) for active, 0 (no) for inactive

compound: Cn1ncc(Cl)c1-c1cc(C(=O)NC(CN)Cc2cccc(F)c2)sc1Cl (stereo unspecified) + CCN1CCN(Cc2ccc(Nc3ncc(F)c(-c4cc(F)c5nc(C)n(C(C)C)c5c4)n3)nc2)CC1
classification: 1 (yes)

compound: CC1(C)CCC(CN2CCN(c3ccc(C(=O)NS(=O)(=O)c4ccc(NCC5CCOCC5)c([N+](=O)[O-])c4)c(Oc4cnc5[nH]ccc5c4)c3)CC2)=C(c2ccc(Cl)cc2)C1 + CCN1CCN(Cc2ccc(Nc3ncc(F)c(-c4cc(F)c5nc(C)n(C(C)C)c5c4)n3)nc2)CC1
classification: 1 (yes)

compound: C=CC(=O)N1CCN(c2nc(=O)n(-c3c(C)ccnc3C(C)C)c3nc(-c4c(O)cccc4F)c(F)cc23)C(C)C1 (stereo unspecified) + CC(C)NCC(C(=O)N1CCN(c2ncnc3c2C(C)CC3O)CC1)c1ccc(Cl)cc1
classification: 0 (no)

compound: Cn1nccc1Nc1nccc(-c2ccn(C(CO)c3ccc(Cl)c(F)c3)c(=O)c2)n1 (stereo unspecified) + CC(C)NCC(C(=O)N1CCN(c2ncnc3c2C(C)CC3O)CC1)c1ccc(Cl)cc1
classification: 0 (no)

compound: CCCS(=O)(=O)Nc1ccc(F)c(C(=O)c2c[nH]c3ncc(-c4ccc(Cl)cc4)cc23)c1F + CC(C)NCC(C(=O)N1CCN(c2ncnc3c2C(C)CC3O)CC1)c1ccc(Cl)cc1
classification: 0 (no)

compound: Cn1ncc(Cl)c1-c1cc(C(=O)NC(CN)Cc2cccc(F)c2)sc1Cl (stereo unspecified) + CC(C)NCC(C(=O)N1CCN(c2ncnc3c2C(C)CC3O)CC1)c1ccc(Cl)cc1
classification: 1 (yes)

compound: Cc1nc(NC(=O)N2CCCC2C(N)=O)sc1-c1ccnc(C(C)(C)C(F)(F)F)c1 (stereo unspecified) + CCN1CCN(Cc2ccc(Nc3ncc(F)c(-c4cc(F)c5nc(C)n(C(C)C)c5c4)n3)nc2)CC1
classification: 0 (no)

compound: CC1(C)CCC(CN2CCN(c3ccc(C(=O)NS(=O)(=O)c4ccc(NCC5CCOCC5)c([N+](=O)[O-])c4)c(Oc4cnc5[nH]ccc5c4)c3)CC2)=C(c2ccc(Cl)cc2)C1 + CC(C)NCC(C(=O)N1CCN(c2ncnc3c2C(C)CC3O)CC1)c1ccc(Cl)cc1
classification: 1 (yes)

compound: Cc1nc(NC(=O)N2CCCC2C(N)=O)sc1-c1ccnc(C(C)(C)C(F)(F)F)c1 (stereo unspecified) + CC(C)NCC(C(=O)N1CCN(c2ncnc3c2C(C)CC3O)CC1)c1ccc(Cl)cc1
classification: 0 (no)

compound: C=CC(=O)N1CCN(c2nc(=O)n(-c3c(C)ccnc3C(C)C)c3nc(-c4c(O)cccc4F)c(F)cc23)C(C)C1 (stereo unspecified) + CCN1CCN(Cc2ccc(Nc3ncc(F)c(-c4cc(F)c5nc(C)n(C(C)C)c5c4)n3)nc2)CC1
classification: 0 (no)

compound: C=CCn1c(=O)c2cnc(Nc3ccc(N4CCN(C)CC4)cc3)nc2n1-c1cccc(C(C)(C)O)n1 + CCN1CCN(Cc2ccc(Nc3ncc(F)c(-c4cc(F)c5nc(C)n(C(C)C)c5c4)n3)nc2)CC1
classification: 1 (yes)
